Data origin: patent US10030020B2

- tested-system: MAGL (Mus musculus (Mouse), UniProt O35678)
- Sequence (O35678 whole entry): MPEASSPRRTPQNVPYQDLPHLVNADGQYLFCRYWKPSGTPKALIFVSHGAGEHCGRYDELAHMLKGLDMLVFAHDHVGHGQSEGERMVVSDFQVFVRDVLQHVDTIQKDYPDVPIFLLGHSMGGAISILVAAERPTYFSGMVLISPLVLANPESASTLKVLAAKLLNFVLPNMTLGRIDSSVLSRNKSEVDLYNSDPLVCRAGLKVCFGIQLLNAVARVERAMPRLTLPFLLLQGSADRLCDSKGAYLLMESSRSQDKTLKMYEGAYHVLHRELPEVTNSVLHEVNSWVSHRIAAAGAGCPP
- assay-overview: In vitro competitive activity-based protein profiling (mouse brain membrane fraction or cell lysates), MAGL band
- Type: biochemical
- cond: mouse proteome, competitive ABPP
# IC50 per entry

Past entries and their recorded results:
{"structure-string": "O=C(OC(C(F)(F)F)C(F)(F)F)N1CCC2(CCN(Cc3c(N4CCCC4)cccc3C(F)(F)F)C2)CC1", "measured": "100 to 1000 nM"}
{"structure-string": "O=C(OC(C(F)(F)F)C(F)(F)F)N1CCC2(CCN(Cc3ccc(C(F)(F)F)c(N4CCCC4)c3)C2)CC1", "measured": "< 100 nM"}
{"structure-string": "CC1(C)CC2(CCN(C(=O)OC(C(F)(F)F)C(F)(F)F)CC2)CN1Cc1ccc(Cl)cc1", "measured": "< 100 nM"}
{"structure-string": "CC(=O)N1CCN(c2cc(Cl)ccc2CN2CCCC23CCN(C(=O)OC(C(F)(F)F)C(F)(F)F)CC3)CC1", "measured": "< 100 nM"}
{"structure-string": "O=C(OC(C(F)(F)F)C(F)(F)F)N1CCC2(CCN(Cc3ccc(C(F)(F)F)cc3N3CCCC3)C2)CC1", "measured": "< 100 nM"}
{"structure-string": "CC1(C)CC2(CCN(C(=O)OC(C(F)(F)F)C(F)(F)F)CC2)CN1Cc1cc(Cl)cc(N2CCOCC2)c1", "measured": "100 to 1000 nM"}

// below: IC50 requested for another compound
// IC50 lookup, compound = CS(=O)(=O)N1CCN(c2cc(Cl)ccc2CN2CCCC23CCN(C(=O)OC(C(F)(F)F)C(F)(F)F)CC3)CC1 , result: < 100 nM
